These measurements were taken from patent US20220091128A1.

biological target: HSA (Homo sapiens, UniProt P02768); experiment: Drug screening: HSA binding constants from DSC thermograms; conditions: Measured KD from ΔG^037, binding to HSA; single value or value marked 1)
Sequence (P02768 25-609): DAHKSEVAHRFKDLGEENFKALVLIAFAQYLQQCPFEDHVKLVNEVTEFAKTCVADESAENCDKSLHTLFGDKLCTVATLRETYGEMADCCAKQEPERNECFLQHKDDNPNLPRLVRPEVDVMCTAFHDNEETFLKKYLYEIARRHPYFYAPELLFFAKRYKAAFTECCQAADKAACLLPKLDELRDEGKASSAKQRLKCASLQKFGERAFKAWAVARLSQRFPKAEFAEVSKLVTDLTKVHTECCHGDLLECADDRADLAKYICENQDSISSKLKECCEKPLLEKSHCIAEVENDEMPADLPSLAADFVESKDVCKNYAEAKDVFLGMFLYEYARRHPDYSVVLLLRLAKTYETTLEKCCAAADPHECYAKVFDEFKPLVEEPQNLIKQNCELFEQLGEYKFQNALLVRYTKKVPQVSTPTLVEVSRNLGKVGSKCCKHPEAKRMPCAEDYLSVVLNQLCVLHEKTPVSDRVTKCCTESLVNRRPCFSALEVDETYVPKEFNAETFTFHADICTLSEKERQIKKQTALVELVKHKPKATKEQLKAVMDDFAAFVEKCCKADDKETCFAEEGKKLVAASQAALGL
As shown below, each of these compounds has a reported Kd value.

| compound | Kd |
| --- | --- |
| O=C1OC2(c3ccc(O)cc3Oc3cc(O)ccc32)c2ccccc21 [Fluorescein (FSC), Fluorescein] | 56.2 µM |
| CC(NC(C)(C)C)C(=O)c1cccc(Cl)c1 (stereo not drawn) [Bupropion (BPR), Bupropion] | 0.21 µM |
| CCCCNc1ccc(C(=O)OCCN(C)C)cc1 [Tet, Tetracaine] | 28.6 µM |
| C[C@H](CS)C(=O)N1CCC[C@H]1C(=O)O [Captopril (CAP), Captopril] | 2.05 µM |
| C=CC1=C(C)/C(=C/c2[nH]c(Cc3[nH]c(/C=C4\NC(=O)C(C)=C4C=C)c(C)c3CCC(=O)O)c(CCC(=O)O)c2C)NC1=O [Bilirubin (BIL), Bilirubin] | 0.25 µM |
| COCCc1ccc(OCC(O)CNC(C)C)cc1 (stereo not drawn) [Metoprolol (MEP), Metoprolol] | 19.2 µM |
